- Tested on: EGFR (human), P00533 [P753S; 747-752 del]
- assay details: KINOMEscan competition binding
- test settings: compound 10.0 µM
measurement kind: kinase still bound, per cent of control (%)
# value in %; strip the unit string

* Cc1ccc(NC(=O)c2cccc(C(C)(C)C#N)c2)cc1Nc1ccc2ncn(C)c(=O)c2c1 | 19

For the next question, use this compound.
Field kinase still bound, per cent of control (entry COc1cc(N2CCN(C)CC2)ccc1Nc1ncc2c(n1)N(C)c1ccccc1C(=O)N2C ) reads 100

---

- tested system: CDK19 (human) (UniProt Q9BWU1)
- Sequence (Q9BWU1 whole entry, looked up): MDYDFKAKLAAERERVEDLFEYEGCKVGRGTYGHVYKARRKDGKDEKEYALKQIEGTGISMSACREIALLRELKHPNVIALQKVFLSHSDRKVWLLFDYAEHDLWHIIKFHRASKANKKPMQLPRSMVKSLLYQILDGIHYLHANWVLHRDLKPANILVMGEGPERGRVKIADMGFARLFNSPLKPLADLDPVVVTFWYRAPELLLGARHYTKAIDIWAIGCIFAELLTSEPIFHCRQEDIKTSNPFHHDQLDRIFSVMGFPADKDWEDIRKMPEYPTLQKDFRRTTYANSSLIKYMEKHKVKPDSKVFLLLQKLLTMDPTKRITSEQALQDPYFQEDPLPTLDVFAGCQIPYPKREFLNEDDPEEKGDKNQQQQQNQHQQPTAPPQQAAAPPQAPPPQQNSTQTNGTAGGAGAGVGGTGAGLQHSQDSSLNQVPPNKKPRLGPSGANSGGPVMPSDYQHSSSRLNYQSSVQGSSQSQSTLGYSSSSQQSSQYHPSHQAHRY
- assay details: KINOMEscan competition binding
- test settings: compound 10.0 µM
measurement kind: kinase still bound, per cent of control
For clarity, give the value followed by its unit.

* O=C(O)c1ccc(Nc2ncc3c(n2)-c2ccc(Cl)cc2C(c2c(F)cccc2F)=NC3)cc1 | 96%
* Cc1ccc(NC(=O)c2cccc(C(C)(C)C#N)c2)cc1Nc1ccc2ncn(C)c(=O)c2c1 | 35%
* C=CC(=O)Nc1cccc(Nc2nc(N[C@H]3CC[C@H](N(C)C)CC3)nc3c2ncn3C(C)C)c1 | 100%
* N#Cc1c(NC(=O)c2cccc3ccccc23)sc2c1CCCC2 | 88%
* CN(C)C/C=C/C(=O)Nc1cccc(Nc2ncc3c(n2)N(C)c2ccccc2C(=O)N3C)c1 | 100%
* C=CC(=O)Nc1cc(NC(=O)c2ccc(C)c(NC(=O)c3ccno3)c2)cc(C(F)(F)F)c1 | 96%
* Nc1ccc(-c2ccc3ncc4ccc(=O)n(-c5cccc(C(F)(F)F)c5)c4c3c2)cn1 | 100%
* CCCS(=O)(=O)Nc1ccc(F)c(C(=O)c2c[nH]c3ncc(-c4ccc(Cl)cc4)cc23)c1F | 0.8%

Given the molecule C[C@@H](Oc1cc(-n2cnc3ccc(CN4CCN(C)CC4)cc32)sc1C(N)=O)c1ccccc1C(F)(F)F and test system CDK19 (human) (UniProt Q9BWU1), the measured kinase still bound, per cent of control is 100%

---

- tested system: UniProt Q04912
- Sequence (Q04912 whole entry, looked up): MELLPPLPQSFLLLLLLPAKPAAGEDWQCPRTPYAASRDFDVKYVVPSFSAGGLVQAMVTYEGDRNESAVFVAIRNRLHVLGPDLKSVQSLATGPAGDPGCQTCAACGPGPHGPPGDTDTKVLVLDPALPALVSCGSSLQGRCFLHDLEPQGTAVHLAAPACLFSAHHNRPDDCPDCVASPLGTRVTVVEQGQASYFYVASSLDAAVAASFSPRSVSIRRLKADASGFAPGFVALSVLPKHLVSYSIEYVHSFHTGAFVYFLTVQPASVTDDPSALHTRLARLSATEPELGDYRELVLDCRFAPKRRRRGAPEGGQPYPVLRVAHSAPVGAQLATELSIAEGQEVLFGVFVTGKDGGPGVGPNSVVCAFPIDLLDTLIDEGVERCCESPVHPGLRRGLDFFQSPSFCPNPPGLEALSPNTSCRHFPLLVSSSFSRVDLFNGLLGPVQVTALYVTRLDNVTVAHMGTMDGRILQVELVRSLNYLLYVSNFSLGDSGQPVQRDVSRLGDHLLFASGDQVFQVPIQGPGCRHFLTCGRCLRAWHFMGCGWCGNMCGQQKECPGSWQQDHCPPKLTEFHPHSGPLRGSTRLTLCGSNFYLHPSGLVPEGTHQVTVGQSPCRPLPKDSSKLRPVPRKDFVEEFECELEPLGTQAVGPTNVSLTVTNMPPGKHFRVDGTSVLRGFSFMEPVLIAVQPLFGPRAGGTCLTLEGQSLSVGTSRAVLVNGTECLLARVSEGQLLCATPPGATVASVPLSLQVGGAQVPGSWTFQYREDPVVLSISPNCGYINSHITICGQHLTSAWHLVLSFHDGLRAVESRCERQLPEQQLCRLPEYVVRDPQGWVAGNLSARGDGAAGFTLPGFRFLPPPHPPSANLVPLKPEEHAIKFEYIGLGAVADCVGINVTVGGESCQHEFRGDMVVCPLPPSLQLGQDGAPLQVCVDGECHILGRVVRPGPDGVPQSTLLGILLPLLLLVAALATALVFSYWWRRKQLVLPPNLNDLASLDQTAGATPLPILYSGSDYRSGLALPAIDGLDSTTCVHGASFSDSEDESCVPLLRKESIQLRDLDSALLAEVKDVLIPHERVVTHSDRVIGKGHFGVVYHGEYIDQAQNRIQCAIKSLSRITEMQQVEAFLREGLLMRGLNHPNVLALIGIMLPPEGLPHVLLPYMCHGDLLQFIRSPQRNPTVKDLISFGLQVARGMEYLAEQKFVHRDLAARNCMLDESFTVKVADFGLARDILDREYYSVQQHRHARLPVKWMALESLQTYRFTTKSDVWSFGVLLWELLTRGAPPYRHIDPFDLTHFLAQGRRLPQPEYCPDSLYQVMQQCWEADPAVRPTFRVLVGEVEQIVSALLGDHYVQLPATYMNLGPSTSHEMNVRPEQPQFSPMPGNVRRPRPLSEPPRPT
- assay details: KINOMEscan competition binding
- test settings: compound 10.0 µM
measurement kind: kinase still bound, per cent of control (%)
# value in %; strip the unit string

Solved cases below.
• Cn1c(=O)n(-c2ccc(C(C)(C)C#N)cc2)c2c3cc(-c4cnc5ccccc5c4)ccc3ncc21 = 100
• Nc1ccc(-c2ccc3ncc4ccc(=O)n(-c5cccc(C(F)(F)F)c5)c4c3c2)cn1 = 90

Field kinase still bound, per cent of control (entry COc1cc(N2CCN(C)CC2)ccc1Nc1nc(N)c(C(=O)c2c(Cl)cccc2Cl)s1 ) reads 96

Field kinase still bound, per cent of control (entry Cc1ccc(NC(=O)c2cccc(C(C)(C)C#N)c2)cc1Nc1ccc2ncn(C)c(=O)c2c1 ) reads 100

Field kinase still bound, per cent of control (entry O=C1Nc2ccc(I)cc2/C1=C/c1cc(Br)c(O)c(Br)c1 ) reads 100

---

Each entry below carries its reported kinase still bound, per cent of control.
- tested system: UniProtKB P06241
- Sequence (P06241 whole entry, looked up): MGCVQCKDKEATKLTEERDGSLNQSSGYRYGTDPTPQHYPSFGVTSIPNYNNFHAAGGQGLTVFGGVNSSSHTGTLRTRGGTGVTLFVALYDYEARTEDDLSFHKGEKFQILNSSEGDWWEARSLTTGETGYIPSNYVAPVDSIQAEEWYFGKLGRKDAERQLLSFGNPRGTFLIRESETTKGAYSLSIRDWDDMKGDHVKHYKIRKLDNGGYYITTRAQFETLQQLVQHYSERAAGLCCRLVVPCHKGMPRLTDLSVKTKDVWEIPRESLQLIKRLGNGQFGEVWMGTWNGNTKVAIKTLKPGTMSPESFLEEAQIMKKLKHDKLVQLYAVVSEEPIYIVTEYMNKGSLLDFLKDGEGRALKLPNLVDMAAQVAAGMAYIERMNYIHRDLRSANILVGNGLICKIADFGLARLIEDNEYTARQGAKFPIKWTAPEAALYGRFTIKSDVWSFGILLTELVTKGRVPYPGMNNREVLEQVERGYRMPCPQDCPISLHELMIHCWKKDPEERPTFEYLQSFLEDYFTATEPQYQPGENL
- assay details: KINOMEscan competition binding
- test settings: compound 10.0 µM
# value in %; strip the unit string

Solved cases below.
- C[C@@H](Oc1cc(-n2cnc3ccc(CN4CCN(C)CC4)cc32)sc1C(N)=O)c1ccccc1C(F)(F)F: 100
- CCC(=O)N1CCN(c2ccc(-n3c(=O)ccc4cnc5ccc(-c6cnc7ccccc7c6)cc5c43)cc2C(F)(F)F)CC1: 49
- Cc1ccc(C(=O)Nc2cccc(C(F)(F)F)c2)cc1Nc1cncc(C(N)=O)c1: 100

For the next question, use this compound.
Field kinase still bound, per cent of control (entry Cn1c(=O)n(-c2ccc(C(C)(C)C#N)cc2)c2c3cc(-c4cnc5ccccc5c4)ccc3ncc21 ) reads 100

---

- tested system: CAMKK2 (human)
- assay details: KINOMEscan competition binding
- test settings: compound 10.0 µM
measurement kind: kinase still bound, per cent of control (%)
# value in %; strip the unit string

Solved cases below.
- Cc1ccc(C(=O)Nc2cccc(C(F)(F)F)c2)cc1Nc1cncc(C(N)=O)c1: 100
- O=C(NOC[C@H](O)CO)c1ccc(F)c(F)c1Nc1ccc(I)cc1F: 100

For the next question, use this compound.
Field kinase still bound, per cent of control (entry Cc1ccc(NC(=O)c2cccc(C(C)(C)C#N)c2)cc1Nc1ccc2ncn(C)c(=O)c2c1 ) reads 28

---

- tested system: PAK6 (human) (UniProt Q9NQU5)
- Sequence (Q9NQU5 whole entry, looked up): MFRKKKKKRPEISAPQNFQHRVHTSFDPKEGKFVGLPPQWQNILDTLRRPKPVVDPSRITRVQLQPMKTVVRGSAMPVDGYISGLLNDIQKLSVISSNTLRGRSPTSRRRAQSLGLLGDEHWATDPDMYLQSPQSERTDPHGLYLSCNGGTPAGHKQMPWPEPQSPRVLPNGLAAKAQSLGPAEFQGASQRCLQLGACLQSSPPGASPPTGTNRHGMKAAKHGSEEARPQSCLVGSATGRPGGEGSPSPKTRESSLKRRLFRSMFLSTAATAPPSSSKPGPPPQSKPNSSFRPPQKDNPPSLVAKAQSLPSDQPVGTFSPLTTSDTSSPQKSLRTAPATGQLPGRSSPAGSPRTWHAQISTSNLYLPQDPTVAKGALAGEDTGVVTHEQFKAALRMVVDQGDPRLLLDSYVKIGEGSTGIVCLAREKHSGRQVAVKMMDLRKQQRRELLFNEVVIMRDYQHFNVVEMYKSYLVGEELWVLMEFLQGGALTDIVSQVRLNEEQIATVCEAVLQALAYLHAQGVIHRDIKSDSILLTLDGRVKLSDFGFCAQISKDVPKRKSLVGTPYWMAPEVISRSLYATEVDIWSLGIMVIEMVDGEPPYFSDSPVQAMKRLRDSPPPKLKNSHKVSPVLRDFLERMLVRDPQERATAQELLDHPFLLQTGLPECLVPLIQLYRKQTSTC
- assay details: KINOMEscan competition binding
- test settings: compound 10.0 µM
Each entry below carries its reported kinase still bound, per cent of control.
# value in %; strip the unit string

Field kinase still bound, per cent of control (entry Cc1ccc2nc(NCCN)c3ncc(C)n3c2c1 ) reads 100

Field kinase still bound, per cent of control (entry O=C(NOC[C@H](O)CO)c1ccc(F)c(F)c1Nc1ccc(I)cc1F ) reads 94

Field kinase still bound, per cent of control (entry O=C1Nc2ccc(I)cc2/C1=C/c1cc(Br)c(O)c(Br)c1 ) reads 73

Field kinase still bound, per cent of control (entry C[C@@H](Oc1cc(-n2cnc3ccc(CN4CCN(C)CC4)cc32)sc1C(N)=O)c1ccccc1C(F)(F)F ) reads 98

Field kinase still bound, per cent of control (entry O=C(O)c1ccc(Nc2ncc3c(n2)-c2ccc(Cl)cc2C(c2c(F)cccc2F)=NC3)cc1 ) reads 79

Field kinase still bound, per cent of control (entry CCCS(=O)(=O)Nc1ccc(F)c(C(=O)c2c[nH]c3ncc(-c4ccc(Cl)cc4)cc23)c1F ) reads 74

Field kinase still bound, per cent of control (entry O=C(NC1CC1)c1cccc(-c2ccc3c(NC(=O)C4CC4)n[nH]c3c2)c1 ) reads 61

Field kinase still bound, per cent of control (entry COc1cc(C(=O)NC2CCN(C)CC2)ccc1Nc1ncc2c(n1)N(C1CCCC1)C(C)CC(=O)N2C (configuration not stated) ) reads 100

Field kinase still bound, per cent of control (entry Nc1ccc(-c2ccc3ncc4ccc(=O)n(-c5cccc(C(F)(F)F)c5)c4c3c2)cn1 ) reads 100

---

- tested system: CDK14 (human)
- assay details: KINOMEscan competition binding
- test settings: compound 10.0 µM
Each entry below carries its reported kinase still bound, per cent of control.
# value in %; strip the unit string

Solved cases below.
* COc1cc(N2CCN(C)CC2)ccc1Nc1nc(N)c(C(=O)c2c(Cl)cccc2Cl)s1 | 91
* CCC(=O)N1CCN(c2ccc(-n3c(=O)ccc4cnc5ccc(-c6cnc7ccccc7c6)cc5c43)cc2C(F)(F)F)CC1 | 99
* O=C(NOC[C@H](O)CO)c1ccc(F)c(F)c1Nc1ccc(I)cc1F | 100
* O=C(O)c1ccc(Nc2ncc3c(n2)-c2ccc(Cl)cc2C(c2c(F)cccc2F)=NC3)cc1 | 100
* N#Cc1c(NC(=O)c2cccc3ccccc23)sc2c1CCCC2 | 98

Field kinase still bound, per cent of control (entry CN(C)C/C=C/C(=O)Nc1cccc(Nc2ncc3c(n2)N(C)c2ccccc2C(=O)N3C)c1 ) reads 100

Field kinase still bound, per cent of control (entry CC[C@@H]1C(=O)N(C)c2cnc(Nc3ccc(C(=O)NC4CCN(C)CC4)cc3OC)nc2N1C1CCCC1 ) reads 100

Field kinase still bound, per cent of control (entry Cc1cc([C@@H](C)Nc2ccccc2C(=O)O)c2nc(N3CCOCC3)cc(=O)n2c1 ) reads 100

---

- tested system: NEK1 (human) (UniProt Q96PY6)
- Sequence (Q96PY6 whole entry, looked up): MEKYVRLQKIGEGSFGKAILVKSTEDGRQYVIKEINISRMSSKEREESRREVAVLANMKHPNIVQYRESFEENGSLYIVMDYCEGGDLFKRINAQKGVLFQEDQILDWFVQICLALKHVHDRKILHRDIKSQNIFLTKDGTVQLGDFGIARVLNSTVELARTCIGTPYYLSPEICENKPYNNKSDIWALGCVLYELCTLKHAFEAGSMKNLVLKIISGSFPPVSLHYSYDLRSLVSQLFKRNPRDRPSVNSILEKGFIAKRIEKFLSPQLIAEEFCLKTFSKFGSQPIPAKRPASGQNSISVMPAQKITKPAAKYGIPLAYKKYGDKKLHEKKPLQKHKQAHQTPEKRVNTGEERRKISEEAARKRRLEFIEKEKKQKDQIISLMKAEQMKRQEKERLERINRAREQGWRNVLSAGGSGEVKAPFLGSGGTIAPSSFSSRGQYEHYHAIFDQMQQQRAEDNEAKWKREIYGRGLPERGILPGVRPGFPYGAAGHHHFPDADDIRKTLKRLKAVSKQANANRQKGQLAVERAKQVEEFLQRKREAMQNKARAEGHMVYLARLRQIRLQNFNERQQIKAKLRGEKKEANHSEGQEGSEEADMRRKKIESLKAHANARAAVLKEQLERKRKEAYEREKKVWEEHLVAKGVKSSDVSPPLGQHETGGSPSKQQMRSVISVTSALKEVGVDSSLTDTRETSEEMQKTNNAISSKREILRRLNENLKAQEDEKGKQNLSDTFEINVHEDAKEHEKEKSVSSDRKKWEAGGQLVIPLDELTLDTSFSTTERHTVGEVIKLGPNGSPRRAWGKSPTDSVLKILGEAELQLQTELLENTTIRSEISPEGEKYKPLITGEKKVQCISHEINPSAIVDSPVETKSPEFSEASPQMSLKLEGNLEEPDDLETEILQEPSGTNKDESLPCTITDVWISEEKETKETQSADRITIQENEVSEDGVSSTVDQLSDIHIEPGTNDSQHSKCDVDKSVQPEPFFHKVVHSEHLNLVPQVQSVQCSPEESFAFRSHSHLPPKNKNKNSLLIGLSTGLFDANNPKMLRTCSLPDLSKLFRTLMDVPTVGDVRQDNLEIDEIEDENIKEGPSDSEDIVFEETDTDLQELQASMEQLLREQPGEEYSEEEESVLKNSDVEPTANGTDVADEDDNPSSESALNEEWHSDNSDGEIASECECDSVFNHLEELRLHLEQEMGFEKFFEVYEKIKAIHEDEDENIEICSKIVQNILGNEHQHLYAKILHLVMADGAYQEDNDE
- assay details: KINOMEscan competition binding
- test settings: compound 10.0 µM
measurement kind: kinase still bound, per cent of control (%)
# value in %; strip the unit string

Solved cases below.
- N#Cc1c(NC(=O)c2cccc3ccccc23)sc2c1CCCC2: 100
- O=C(NC1CC1)c1cccc(-c2ccc3c(NC(=O)C4CC4)n[nH]c3c2)c1: 86

For the next question, use this compound.
Field kinase still bound, per cent of control (entry C[C@@H](Oc1cc(-n2cnc3ccc(CN4CCN(C)CC4)cc32)sc1C(N)=O)c1ccccc1C(F)(F)F ) reads 41

---

Each entry below carries its reported kinase still bound, per cent of control.
- tested system: WEE1 (human) (UniProt P30291)
- Sequence (P30291 whole entry, looked up): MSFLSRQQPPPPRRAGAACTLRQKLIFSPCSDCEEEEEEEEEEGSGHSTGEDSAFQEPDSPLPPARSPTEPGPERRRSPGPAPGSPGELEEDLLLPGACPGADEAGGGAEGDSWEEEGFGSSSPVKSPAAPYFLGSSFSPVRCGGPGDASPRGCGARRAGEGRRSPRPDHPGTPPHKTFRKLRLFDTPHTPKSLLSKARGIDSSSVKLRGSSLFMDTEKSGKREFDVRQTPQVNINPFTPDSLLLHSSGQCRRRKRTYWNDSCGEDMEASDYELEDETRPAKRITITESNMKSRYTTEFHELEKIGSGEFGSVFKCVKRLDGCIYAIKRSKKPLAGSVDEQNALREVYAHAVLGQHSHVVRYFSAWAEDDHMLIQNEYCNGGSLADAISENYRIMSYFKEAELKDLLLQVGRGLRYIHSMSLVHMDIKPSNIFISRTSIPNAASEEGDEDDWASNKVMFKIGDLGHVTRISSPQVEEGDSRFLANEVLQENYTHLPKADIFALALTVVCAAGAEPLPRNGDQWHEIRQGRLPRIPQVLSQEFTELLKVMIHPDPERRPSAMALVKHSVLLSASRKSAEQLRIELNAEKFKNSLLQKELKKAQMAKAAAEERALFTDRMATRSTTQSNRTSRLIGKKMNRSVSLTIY
- assay details: KINOMEscan competition binding
- test settings: compound 10.0 µM

Solved cases below.
- Cn1c(=O)n(-c2ccc(C(C)(C)C#N)cc2)c2c3cc(-c4cnc5ccccc5c4)ccc3ncc21: 100%
- Nc1ccc(-c2ccc3ncc4ccc(=O)n(-c5cccc(C(F)(F)F)c5)c4c3c2)cn1: 100%
- C=CC(=O)Nc1cccc(Nc2nc(N[C@H]3CC[C@H](N(C)C)CC3)nc3c2ncn3C(C)C)c1: 51%
- COc1cc(N2CCN(C)CC2)ccc1Nc1nc(N)c(C(=O)c2c(Cl)cccc2Cl)s1: 100%
- Cc1ccc(NC(=O)c2cccc(C(C)(C)C#N)c2)cc1Nc1ccc2ncn(C)c(=O)c2c1: 100%

Field kinase still bound, per cent of control (entry CCCS(=O)(=O)Nc1ccc(F)c(C(=O)c2c[nH]c3ncc(-c4ccc(Cl)cc4)cc23)c1F ) reads 100%

Field kinase still bound, per cent of control (entry CC[C@@H]1C(=O)N(C)c2cnc(Nc3ccc(C(=O)NC4CCN(C)CC4)cc3OC)nc2N1C1CCCC1 ) reads 100%

Field kinase still bound, per cent of control (entry CCOc1cc2ncc(C#N)c(Nc3ccc(OCc4ccccn4)c(Cl)c3)c2cc1NC(=O)/C=C/CN(C)C ) reads 57%

Field kinase still bound, per cent of control (entry O=C(NOC[C@H](O)CO)c1ccc(F)c(F)c1Nc1ccc(I)cc1F ) reads 67%

Field kinase still bound, per cent of control (entry C=CC(=O)Nc1cccc(Oc2nc(Nc3ccc(N4CCN(C)CC4)cc3OC)ncc2Cl)c1 ) reads 100%
